# study_system: Recombinant human β-Secretase (BACE-1) (Homo sapiens)
# Sequence (P56817 46-457 limits assumed): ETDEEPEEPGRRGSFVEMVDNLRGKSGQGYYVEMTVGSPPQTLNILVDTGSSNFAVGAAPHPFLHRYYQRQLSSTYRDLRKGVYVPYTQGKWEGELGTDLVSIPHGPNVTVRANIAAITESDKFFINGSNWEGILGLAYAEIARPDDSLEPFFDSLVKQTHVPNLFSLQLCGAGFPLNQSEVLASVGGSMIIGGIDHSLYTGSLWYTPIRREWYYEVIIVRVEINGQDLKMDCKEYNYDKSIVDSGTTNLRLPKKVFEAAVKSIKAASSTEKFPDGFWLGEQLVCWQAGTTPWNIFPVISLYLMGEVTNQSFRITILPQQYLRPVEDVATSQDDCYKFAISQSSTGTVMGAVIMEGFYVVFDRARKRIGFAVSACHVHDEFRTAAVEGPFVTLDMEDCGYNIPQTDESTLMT
# experiment_summary: BACE1 inhibition assay with fluorogenic substrate
Please respond with reported IC50 for every item in the list.
Please don't drop the unit; write it after the number.

Q: Entry COC(=O)C1=C(C)NC(=S)NC1c1ccccc1 (stereo not shown) [Compound 2b] has what IC50?
A: 850 nM

Q: Which IC50 reading was recorded for the compound CC1=C(C(=O)O)C(c2ccccc2)NC(=S)N1 (stereo not shown) [Compound 16b] ?
A: 1200 nM

Q: Give the measured IC50 of CCOC(=O)C1=C(C)NC(=S)NC1c1ccc(F)cc1 (stereo not shown) [Compound 3b] .
A: 240 nM

Give measured IC50 for every item shown.
1. CCOC(=O)C1=C(C)NC(=O)NC1c1ccc(F)cc1 (stereo not shown) [Compound 3a]
2. CCOC(=O)C1=C(C)NC(=O)NC1c1ccc2ccccc2c1 (stereo not shown) [Compound 10a]
3. CCOC(=O)C1=C(C)NC(=N)NC1c1ccc(F)cc1 (stereo not shown) [Compound 3c]
4. CCOC(=O)C1=C(C)NC(=S)NC1c1ccc2ccccc2c1 (stereo not shown) [Compound 10b]

A:
1700 nM
500 nM
300 nM
1100 nM

Hi there! I need IC50 for each item below, if you can.
1. CC1=C(C(=O)O)C(c2ccccc2)NC(=N)N1 (stereo not shown) [Compound 16c]
2. CCOC(=O)C1=C(C)NC(=O)NC1c1ccccc1 (stereo not shown) [Compound 1a]
3. CCOC(=O)C1=C(C)NC(=N)NC1c1ccc2ccccc2c1 (stereo not shown) [Compound 10c]

A:
1: 700 nM; 2: 2800 nM; 3: 200 nM

Data provenance: paper PMC7571164
